Data origin, for the record: patent US10561655B2

# IC50 per record follows
# System: p-ERK/total ERK
# ASSAY_INFO: p-ERK/total ERK Cellular Assay
# Type: cell-based

CC1(CN)CCN(c2ncc(Sc3cccc(Cl)c3Cl)[nH]c2=O)CC1 [Compound 2] :: < 500 nM

Now for the compound whose IC50 we want.
[Q] Can you look up the measured IC50 of NC1COCC12CCN(c1ncc(Sc3cccc(Cl)c3Cl)[nH]c1=O)CC2 (centres unmarked) [Compound 10] for me?
[A] < 100 nM
